test system: 883617-216-R-J1-PDC complex spheroid viability; assay: Anticancer human tumor 883617-216-R-J1-PDC patient-derived bladder carcinoma cell line growth inhibition [POLQ]; details: second compound 0.1 µM; first compound 0.0316 µM; stronger effect = lower value
viability, T/C strictly less than 70% = T. Otherwise F.

# example entries with known answers
-- ask Check if viability, T/C falls below 70% for C=CC(=O)N1CCN(c2nc(=O)n(-c3c(C)ccnc3C(C)C)c3nc(-c4c(O)cccc4F)c(F)cc23)C(C)C1 (stereo unspecified) + Cc1cccc(N(C)C(=O)C2C(O)CCN2c2nc(C)cc(C(F)(F)F)c2C#N)c1 .
-- reply F

-- ask Hi there! Is viability, T/C for Cn1ncnc1[C@H]1c2n[nH]c(=O)c3cc(F)cc(c23)N[C@@H]1c1ccc(F)cc1 + Cc1cccc(N(C)C(=O)C2C(O)CCN2c2nc(C)cc(C(F)(F)F)c2C#N)c1 below 70%, do you know?
-- reply F

***
-- ask Lab note: viability, T/C threshold 70%. Does this compound come in strictly under it? O=C(c1cc(Cc2n[nH]c(=O)c3ccccc23)ccc1F)N1CCN(C(=O)C2CC2)CC1 + Nc1ccc(C#CCN(C(=O)Cc2ncc(C(F)(F)F)cc2C(F)(F)F)c2ccc(F)cc2)nn1
-- reply F

-- ask Does the reported viability, T/C of the following compound sit strictly below 70%? Nc1ccn(C2OC(CO)C(O)C2(F)F)c(=O)n1 (stereo unspecified) + COC1C(OC(N)=O)C(O)C(Oc2ccc3c(O)c(NC(=O)c4ccc(O)c(CC=C(C)C)c4)c(=O)oc3c2C)OC1(C)C
-- reply T

-- ask Bench note: check whether COc1cc(C2c3cc4c(cc3C(OC3OC5COC(C)OC5C(O)C3O)C3COC(=O)C23)OCO4)cc(OC)c1O (stereo unspecified) + Nc1ccc(C#CCN(C(=O)Cc2ncc(C(F)(F)F)cc2C(F)(F)F)c2ccc(F)cc2)nn1 shows viability, T/C below 70%
-- reply F

====

tested on: 883617-216-R-J1-PDC complex spheroid viability; test: Anticancer human tumor 883617-216-R-J1-PDC cell line growth inhibition [POLQ]; settings: curve of first compound; second compound 0.0316 µM;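 further: spheroids exposed to compounds for seven days before readout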
quantity.kind: IC50

Entry CC[C@@]1(O)C(=O)OCc2c1cc1n(c2=O)Cc2cc3c(CN(C)C)c(O)ccc3nc2-1 + Nc1ccc(C#CCN(C(=O)Cc2ncc(C(F)(F)F)cc2C(F)(F)F)c2ccc(F)cc2)nn1 ; assay system 883617-216-R-J1-PDC complex spheroid viability; IC50 recorded at > 0.1 µM

Entry O=C(c1cc(Cc2n[nH]c(=O)c3ccccc23)ccc1F)N1CCN(C(=O)C2CC2)CC1 + Cc1cccc(N(C)C(=O)C2C(O)CCN2c2nc(C)cc(C(F)(F)F)c2C#N)c1 : IC50 on 883617-216-R-J1-PDC complex spheroid viability = > 10 µM

Known value: 883617-216-R-J1-PDC complex spheroid viability IC50 of the compound CC1COCCN1c1cc(C2(S(C)(=N)=O)CC2)nc(-c2ccnc3[nH]ccc23)n1 (stereo not given) + Cc1cccc(N(C)C(=O)C2C(O)CCN2c2nc(C)cc(C(F)(F)F)c2C#N)c1 equals 3.3 µM

Measured IC50 (883617-216-R-J1-PDC complex spheroid viability), entry CC(=O)O[C@H]1C(=O)[C@@]2(C)[C@H]([C@H](OC(=O)c3ccccc3)[C@]3(O)C[C@H](OC(=O)[C@H](O)[C@@H](NC(=O)c4ccccc4)c4ccccc4)C(C)=C1C3(C)C)[C@]1(OC(C)=O)CO[C@@H]1C[C@@H]2O + Cc1cccc(N(C)C(=O)C2C(O)CCN2c2nc(C)cc(C(F)(F)F)c2C#N)c1 : < 0.00949 µM

Record for O=C(Nc1ccc(O)c(NS(=O)(=O)c2ccc(F)cc2)c1)c1ccc(-c2ccccc2)cc1 + Nc1ccc(C#CCN(C(=O)Cc2ncc(C(F)(F)F)cc2C(F)(F)F)c2ccc(F)cc2)nn1 under target or system 883617-216-R-J1-PDC complex spheroid viability: IC50 reported as > 10 µM

Sample COc1ccc([C@@H](O)c2cc(-c3ncnc4cc(N5CCOCC5)ccc34)c(F)cc2Cl)nn1 + Nc1ccc(C#CCN(C(=O)Cc2ncc(C(F)(F)F)cc2C(F)(F)F)c2ccc(F)cc2)nn1 , system: 883617-216-R-J1-PDC complex spheroid viability. Its IC50 is 2.81 µM

Now turn to the next compound.
Field IC50 (883617-216-R-J1-PDC complex spheroid viability), entry C#Cc1c(F)ccc2cc(O)cc(-c3ncc4c(N5CC6CCC(C5)N6)nc(OCC56CCCN5CC(F)C6)nc4c3F)c12 (stereo not given) + Nc1ccc(C#CCN(C(=O)Cc2ncc(C(F)(F)F)cc2C(F)(F)F)c2ccc(F)cc2)nn1 : > 10 µM

The measured values listed here are drawn from PubChem BioAssay AID1963833.
